target: Glucocorticoid receptor (Homo sapiens)
experiment_summary: qHTS assay for small molecule antagonists of glucocorticoid receptor signaling (AID 588533);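 note: cells stimulated with 2 nM dexamethasone as agonist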
condition_parameters: HeLa MMTV-bla, GRE beta-lactamase ratio, antagonist mode, 18 h; series mostly up to 76.8 µM
Inconclusive results are not listed. Calls of active or inactive are those of the source. Calls come from the whole dose curve; as a rule, active = well fitted inhibition curve with a large enough effect in the signal ratio, with a control signal flat (not every such curve was filed as active); inconclusive = small, poorly fitted or top-dose-only effect, or effect the other way, or a change in a side signal; inactive = flat fitted curve, though single readings scatter; the % refers to the signal ratio.
property_name: outcome

Below, 5 compounds whose answers are already recorded.
[[record]]
compound = "C1CCCC1"
recorded_value = "inactive"

[[record]]
compound = "C=CC(=O)NC(C)C"
recorded_value = "inactive"

[[record]]
compound = "O=C1CCC(=O)O1"
recorded_value = "inactive"

[[record]]
compound = "Cc1cccc2sc(N)nc12"
recorded_value = "inactive"

[[record]]
compound = "CC(C)(C)OC=O"
recorded_value = "inactive"


## Input State its outcome on Glucocorticoid receptor (Homo sapiens): Cc1c(C(=O)O)cccc1[N+](=O)[O-]
## Output inactive

## Input State its outcome on Glucocorticoid receptor (Homo sapiens): c1ccsc1
## Output inactive

## Input State its outcome on Glucocorticoid receptor (Homo sapiens): CC(=O)c1nccs1
## Output inactive

## Input State its outcome on Glucocorticoid receptor (Homo sapiens): C=Cc1ccccn1
## Output inactive

## Input State its outcome on Glucocorticoid receptor (Homo sapiens): CCC(C)O (stereo not given)
## Output inactive
